Target: α/β1 M45F proteasome complex (Salinispora tropica, UniProt A4X744, M98F)
Sequence (A4X744 54-279, stated change not applied): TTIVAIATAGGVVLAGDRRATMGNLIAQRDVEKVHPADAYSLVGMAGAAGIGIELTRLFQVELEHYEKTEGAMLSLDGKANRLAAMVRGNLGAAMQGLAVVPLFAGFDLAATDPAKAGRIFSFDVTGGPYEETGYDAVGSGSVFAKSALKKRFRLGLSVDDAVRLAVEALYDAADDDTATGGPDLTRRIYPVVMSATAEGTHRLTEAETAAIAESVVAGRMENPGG
Sequence (A4X745 whole entry partner): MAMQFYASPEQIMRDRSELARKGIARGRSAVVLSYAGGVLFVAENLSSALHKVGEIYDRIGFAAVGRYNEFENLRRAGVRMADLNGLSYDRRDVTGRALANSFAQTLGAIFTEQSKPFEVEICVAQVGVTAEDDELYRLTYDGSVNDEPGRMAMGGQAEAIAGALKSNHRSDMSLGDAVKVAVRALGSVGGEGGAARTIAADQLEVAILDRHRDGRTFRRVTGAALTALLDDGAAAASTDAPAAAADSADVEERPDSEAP
Assay: Proteasome inhibition
EXPERIMENTAL READOUT: pIC50
As a rule, pIC50 stands for the negative log10 of the concentration, concentration in M.

Prompt: API: value(readout= pIC50, system= α/β1 M45F proteasome complex (Salinispora tropica, UniProt A4X744, M98F), query= C[C@@]12OC(=O)[C@]1([C@@H](O)[C@@H]1C=CCCC1)NC(=O)[C@@H]2CCCl [Salinosporamide A, salinosporamide A] )
Response: 5.92

----------
Reported IC50 values follow for various compounds
Molecular target: α/β1 20S proteasome complex (Salinispora tropica, UniProt A4X744)
Sequence (A4X744 54-279): as the sequence (A4X744 54-279, stated change not applied) above
Sequence (A4X745 whole entry partner): as the sequence (A4X745 whole entry partner) above
Experiment: Proteasome inhibition

INSERT INTO results (compound, recorded_value) VALUES
  ('C[C@@]12OC(=O)[C@]1([C@@H](O)C1CCC1)NC(=O)[C@@H]2CCCl [Salinosporamide X3, salinosporamide X3]', '> 250 µM'),
  ('CC(C)[C@H](O)[C@@]12NC(=O)[C@H](CCCl)[C@]1(C)OC2=O [Antiprotealide, antiprotealide]', '104 µM'),
  ('CCC[C@H](O)[C@@]12NC(=O)[C@H](CCCl)[C@]1(C)OC2=O [Salinosporamide X5, salinosporamide X5]', '> 250 µM');

Continue with the next compound.
Prompt: Item under review: C[C@@]12OC(=O)[C@]1([C@@H](O)[C@@H]1C=CCC1)NC(=O)[C@@H]2CCCl [Salinosporamide X7, salinosporamide X7] . Reported IC50?
Response: 3.6 µM
